- Tested on: Escherichia coli (NBRC3972)
- assay summary: Growth inhibition activity (MIC, agar) against aerobic bacteria
- Assay type: cell-based
- measurement conditions: Escherichia coli; strain NBRC3972; Mueller Hinton Agar, 37 degrees C. overnight; read-out: MIC (Minimum Inhibitory Concentration)
- Experimental: In the present invention, the growth inhibition activity, which is an indicator of the antimicrobial activity, is evaluated by determining the Minimum Inhibitory Concentration (MIC) with an agar or liquid medium. […]
reported endpoint: MIC

Field: example entries. Status: answers known.
| molecule | MIC |
| --- | --- |
| CNC(=O)C(C)(C(C)C)C(C)C [WS-23, reference compound] | > 1600 mg/L |
| CC1CCC(C(C)C)C(OCC(O)CO)C1 (stereo not shown) [CA10, 3-menthoxypropane-1,2-diol, reference compound] | > 1600 mg/L |
| CC1CCC(C(C)C)C(OCCO)C1 (stereo not shown) | > 1600 mg/L |

Request: So what does the record say about MIC for CC1CCC(C(C)C)C(O)C1 (stereo not drawn) [l-menthol, menthol, reference compound] ?
Result: 1600 mg/L

Request: So what does the record say about MIC for CC1CCC(C(C)C)C(OCCOCCO)C1 (stereo not shown) ?
Result: > 1600 mg/L

Request: So what does the record say about MIC for CC1CCC(C(C)C)C(OC(=O)C=O)C1 (stereo not shown) [CA MGH, menthyl glyoxylate] ?
Result: 800 mg/L

Request: So what does the record say about MIC for CC1CCC(C(C)C)C(OCC(C)(O)CO)C1 (stereo not shown) ?
Result: > 1600 mg/L

Request: So what does the record say about MIC for CC1CCC(C(C)C)C(OCCCO)C1 (stereo not shown) ?
Result: > 1600 mg/L

Request: So what does the record say about MIC for CC1CCC(C(C)(C)O)C(O)C1 (stereo not shown) [CA38, p-menthane-3,8-diol, reference compound] ?
Result: > 1600 mg/L

Request: So what does the record say about MIC for CC(O)CC(=O)OC1CC(C)CCC1C(C)C [(3S)-CA20, menthyl 3-hydroxybutanoate] ?
Result: > 1600 mg/L

Hey, just so you know, these numbers are from patent US20140163099A1.
